Entries and their soluble fraction (log2) values follow.
ASSAY NAME: soluble fraction after stress (log2 fold change); higher = more stays soluble; pooled small domains, quantitative proteomics
STATED CONDITIONS: stress: 50 degC

- SEQUENCE DATA: "HMDKEQVTFIFRDIDIALRSLDYPIKDIKNTLNIIKSEFSNSKSTELNEQKINFENILKEAISILENND"
  soluble fraction (log2): -0.627
- SEQUENCE DATA: "HMSIQELMNSKDLSSFKVEMLSDEDIAKYKGLLQNSGLTEAQAEQMALQRGLPSSELLKLKARLSGI"
  soluble fraction (log2): 0.128
- SEQUENCE DATA: "HMKYRLLGENLQTIRKARGMKQQELADQIGINMQSLSKIERGLNYPTFETLEKIMNALGITPNELLSG"
  soluble fraction (log2): -0.461
- SEQUENCE DATA: "HMSQSYHLADRGQSLGTLDYQAVLVGLATGRLSPDTLSWQEGEAGWVALRQRPEFASGVSAVASL"
  soluble fraction (log2): 0.0116
